Target: wild type human RORγt ligand binding domain (RORγt LBD) (Homo sapiens, UniProt P51449)
Construct: His-tag (N); TurboTEV protease cleavage site (ENLYFQG) (N)
Assay: RORγt ThermoFluor® Assay (thermal shift, binding affinity)
Conditions: pH 7.0, estimated from concentration response curves
Protocol: This approach is applicable to a wide variety of systems, and rigorous in theoretical interpretation through quantitation of equilibrium binding constants (KD). […] Bar-coded assay plates are robotically loaded onto a thermostatically controlled PCR-type thermal block and then heated at a typical ramp-rate of 1 °C/min for all experiments. […] Images were collected at each temperature, and the sum of the pixel intensity in a given area of the assay plate was recorded versus temperature. […]
pKd: −log10 of the molar value.
quantity-name: pKd

Guide cases for pKd, answers given:
COc1c(-c2ccccc2)c(C(F)(F)F)nc2ccc(C(O)(c3ccc(Cl)cc3)c3cncn3C)cc12 (single isomer, unassigned) [Example 33c] :: 7.11
N#Cc1nc2ccc(C(O)(c3ccc(C(F)(F)F)nc3)c3cccc(Cl)c3)cc2cc1-c1ccccc1 (stereo not shown) :: 4.85
COc1nc2ccc(C(O)(c3cncn3C)C3CCN(C(C)=O)CC3)cc2c(Cl)c1-c1cccc(C(F)(F)F)c1 (single isomer, unassigned) [Example 1c] :: 7.48

(P) COc1nc2ccc(C(O)(c3ccc(C(F)(F)F)nc3)c3cncn3C)cc2c(Cl)c1-c1cccc(S(C)(=O)=O)c1 (stereo not shown)
(Q) CN(C)c1nc2ccc(C(O)(c3ccncc3)c3ccccn3)cc2c(Cl)c1-c1ccccc1 (stereo not shown)
## Input Which has the higher pKd, P or Q ? Answer = label.
## Output P

----------
Target: wild type human RORγt ligand binding domain (RORγt LBD) (Homo sapiens, UniProt P51449)
Construct: His-tag (N); TurboTEV protease cleavage site (ENLYFQG) (N); made in house; host or cells: E. coli (pHIS1, modified pET expression vector)
Sequence (P51449 269-508 limits assumed): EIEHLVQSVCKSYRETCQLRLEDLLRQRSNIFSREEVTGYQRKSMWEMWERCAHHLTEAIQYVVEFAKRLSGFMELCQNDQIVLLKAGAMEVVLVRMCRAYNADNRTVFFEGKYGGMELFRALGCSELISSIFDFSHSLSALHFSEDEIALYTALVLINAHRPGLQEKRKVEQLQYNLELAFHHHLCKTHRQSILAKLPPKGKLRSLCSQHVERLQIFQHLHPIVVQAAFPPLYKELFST
Assay: RORγt ThermoFluor® Assay (thermal shift, binding affinity)
Conditions: pH 7.0, estimated from concentration response curves
quantity-name: Kd (µM)

Some entries whose results are on file:
Cn1cncc1C(O)(c1ccc(Cl)cc1)c1ccc2nc(Cl)c(-c3ccccn3)c(Cl)c2c1 (stereo not shown) :: 0.62
OC(c1ccccc1)(c1ccncc1)c1ccc2nc(Cl)c(-c3ccccc3Cl)c(Cl)c2c1 (stereo not shown) :: 20
COc1nc2c(C)cc(C(O)(c3ccc(C(F)(F)F)nc3)c3cncn3C)cc2c(C#N)c1-c1ccc(OC(F)(F)F)cc1 (single isomer, unassigned) [Example 19c] :: 0.017

(a) CC(=O)N1CCC(C(O)(c2ccc3nc(C(F)(F)F)c(-c4ccccc4)c(Cl)c3c2)c2cncn2C)CC1 (single isomer, unassigned) [Example 34b]
(b) COc1nc2ccc(C(O)(c3cncn3C)c3cnnn3C)cc2c(C#N)c1-c1cccc(C(F)(F)F)c1 (single isomer, unassigned) [Example 4b]
(c) COCCN(C)c1nc2ccc(C(O)(c3ccc(C(F)(F)F)nc3)c3cncn3C)cc2c(Cl)c1-c1ccccc1 (stereo not shown)
## Input Put the items in order so that reported Kd rises from first to last. A complete answer lists every label in the requested sequence.
## Output b, c, a
(b: 0.0044 µM, c: 0.0072 µM, a: 0.45 µM)

----------
Molecular target: wild type human RORγt LBD (Homo sapiens, UniProt P51449)
Construct: expressed in transfected cells; host or cells: HEK293T
Experiment: RORγt Reporter Assay (GAL4-RORγt LBD luciferase in HEK293T cells)
Type: cell-based
Conditions: @ 6 µM; HEK293T cells
quantity-name: RORγt reporter Assay, % inhibition @ 6 µM (%)

Answered examples (2):
COc1nc2ccc(C(O)(c3ccc(C(F)(F)F)nc3)c3cncn3C)cc2c(Cl)c1-c1ccc(Cl)s1 (single isomer, unassigned) [Example 14c] :: 87
COc1nc2ccc(C(O)(c3cnnn3C)c3cnc(C)n3C)cc2c(Cl)c1-c1ccccc1 (single isomer, unassigned) [Example 41c] :: 102

(I) Cn1cncc1C(O)(c1ccc2nc(C#N)c(-c3ccccc3)c(C#N)c2c1)c1ccccn1 (single isomer, unassigned) [Example 18b]
(II) CC(=O)N1CCC(C(O)(c2ccc3nc(C(F)(F)F)c(-c4ccccc4)c(Cl)c3c2)c2cncn2C)CC1 (single isomer, unassigned) [Example 34c]
(III) COc1c(-c2ccccc2)c(C(F)(F)F)nc2ccc(C(O)(c3ccc(Cl)cc3)c3cncn3C)cc12 (single isomer, unassigned) [Example 33b]
## Input # desc sort on RORγt reporter Assay, % inhibition @ 6 µM across 3 compounds Please express your ranking as an ordered list of the labels.
## Output II, III, I
(II: 96%, III: 64%, I: 40%)

(a) CC(=O)N1CCC(C(O)(c2ccccc2)c2cc(C)c3nc(C#N)c(-c4ccccc4)c(C#N)c3c2)CC1 (single isomer, unassigned) [Example 21c]
(b) COc1nc2ccc(C(O)(c3ccc(C(F)(F)F)nc3)c3cncn3C)cc2c(Cl)c1-c1ccc(Cl)s1 (single isomer, unassigned) [Example 14b]
(c) COc1nc2c(C)cc(C(O)(c3ccc(C(F)(F)F)nc3)c3cncn3C)cc2c(C#N)c1-c1ccc(OC(F)(F)F)cc1 (single isomer, unassigned) [Example 19c]
## Input Your job: order these 3 records by RORγt reporter Assay, % inhibition @ 6 µM, ascending. In plain terms: list the labels in the order you were asked to.
## Output c, b, a
(c: 35%, b: 53%, a: 96%)

(1) CC(=O)N1CCC(C(O)(c2ccc(C(F)(F)F)nc2)c2cc(C)c3nc(C#N)c(-c4ccccc4)c(C#N)c3c2)CC1 (single isomer, unassigned) [Example 27c]
(2) Cc1cc(C(O)(c2ccc(Cl)cc2)c2cncn2C)cc2c(C#N)c(-c3ccccc3)c(C#N)nc12 (single isomer, unassigned) [Example 23b]
## Input Kindly identify the item with the lower RORγt reporter Assay, % inhibition @ 6 µM figure among these two: 1 and 2 Lab log: write the label of the selected item as the result.
## Output 2
(2: 60%, 1: 96%)

----------
Biological target: wild type human RORγt LBD (Homo sapiens)
Construct: expressed in transfected cells; host or cells: HEK293T
Sequence (P51449 269-508 limits assumed): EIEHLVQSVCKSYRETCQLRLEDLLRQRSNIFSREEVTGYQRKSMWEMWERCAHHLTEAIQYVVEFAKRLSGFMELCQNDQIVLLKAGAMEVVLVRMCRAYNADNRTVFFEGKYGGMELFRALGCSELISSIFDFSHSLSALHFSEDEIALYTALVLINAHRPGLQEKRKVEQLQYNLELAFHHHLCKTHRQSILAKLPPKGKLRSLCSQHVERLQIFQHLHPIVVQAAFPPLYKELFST
Assay: RORγt Reporter Assay (GAL4-RORγt LBD luciferase in HEK293T cells)
Type: cell-based
Conditions: HEK-293T, read-out: RORγt reporter Assay, % inhibition @ 6 µM, @ 6 µM; HEK293T cells
quantity-name: inhibition at 6 µM (%)

Take a look at these entries with their results.
Cc1ncc(C(O)(c2ccc3nc(Cl)c(-c4ccccc4)c(Cl)c3c2)c2cnnn2C)n1C (centres unmarked) [Example 39] :: 103
CNCCN(C)c1nc2ccc(C(O)(c3ccncc3)c3cncn3C)cc2c(Cl)c1-c1ccccc1 (centres unmarked) [Example 82] :: 18
Cn1cncc1C(O)(c1ccc2nc(C(F)(F)F)c(-c3ccccc3)c(Cl)c2c1)c1ccccn1 (centres unmarked) [Example 61] :: 105

(1) CC(=O)N1CCC(C(O)(c2ccc3nc(C(F)(F)F)c(-c4ccccc4)c(Cl)c3c2)c2cncn2C)CC1 (single isomer, unassigned) [Example 34b]
(2) OC(c1cccc(Cl)c1)(c1ccnc(C(F)(F)F)c1)c1ccc2nc(Cl)c(-c3ccccc3)c(Cl)c2c1 (centres unmarked) [Example 77]
## Input Please indicate which entry, 1 or 2 , has the lower recorded inhibition at 6 µM value. Answer = label.
## Output 2
(2: 48%, 1: 90%)

(a) COc1nc2ccc(C(O)(c3ccc(C(F)(F)F)nc3)c3cncn3C)cc2c(Cl)c1-c1cncnc1 (centres unmarked) [Example 10]
(b) OC(c1cccnc1)(c1ccc2nc(Cl)c(-c3ccccc3)c(Cl)c2c1)C1CCNCC1 (centres unmarked) [Example 91]
## Input I need your help: which of the pair a , b has higher inhibition at 6 µM? // respond with label for picked entry
## Output a

----------
Target: wild type human RORγt LBD (Homo sapiens)
Construct: expressed in transfected cells; host or cells: HEK293T
Assay: RORγt Reporter Assay (GAL4-RORγt LBD luciferase in HEK293T cells)
Type: cell-based
Settings: HEK-293T, read-out: RORγt reporter Assay, % inhibition @ 6 µM, @ 6 µM; HEK293T cells
Excerpt: A reporter assay was used to test functional activity of RORγt modulatory compounds on transcriptional activation driven by the RORγt LBD. Cells used in the assay were co-transfected with two constructs. The first construct, pBIND-RORγt LBD, contained the wild type human RORγt LBD fused to the DNA binding domain of the GAL4 protein. The second construct, pGL4.31 (Promega Cat no. C935A), contained multiple GAL4 responsive DNA elements upstream of firefly luciferase. […]
quantity-name: inhibition at 6 µM (%)

Example results:
CSc1nc2ccc(C(O)(c3sc(C)nc3C)c3cncn3C)cc2c(Cl)c1-c1ccccc1 (stereo not shown) :: 98
CCC(=O)NCCOc1nc2ccc(C(O)(c3ccc(Cl)cc3)c3cncn3C)cc2c(Cl)c1-c1ccccc1 (stereo not shown) :: 96
COc1nc2ccc(C(O)(c3ncccn3)c3cncn3C)cc2c(Cl)c1-c1ccccc1 (single isomer, unassigned) [Example 60b] :: 87
COc1nc2ccc(C(O)(c3sc(C)nc3C)c3cnnn3C)cc2c(Cl)c1-c1ccccc1 (stereo not shown) :: 101
COc1nc2ccc(C(O)(c3cncn3C)c3cnnn3C)cc2c(Cl)c1-c1cccc(C(F)(F)F)c1 (single isomer, unassigned) :: 96

(A) CN(CCO)c1nc2ccc(C(O)(c3ccc(Cl)cc3)c3cncn3C)cc2c(Cl)c1-c1ccccc1 (stereo not shown)
(B) CN1CCC(C(O)(c2cccnc2)c2ccc3nc(Cl)c(-c4ccccc4)c(Cl)c3c2)CC1 (stereo not shown)
## Input Which of the two items, A and B , has the greater recorded inhibition at 6 µM? Refer to your chosen item by its label in the answer.
## Output A
(A: 106%, B: 33%)

Value source: patent EP3057950B1
